# ED50 annotations
tested on: Plasmodium yoelii; experiment: Antimalarial activity against Plasmodium yoelii MR4 MRA-428 infected in mouse CF1 assessed as reduction on parasite burden administered through oral gavage once daily for 4 days; type: functional; conditions: MR4 MRA-428, po, 96 h
The reply should be a number in mg/kg/day, with the unit left off.

[
  {
    "compound": "Cc1[nH]c2ccc(F)cc2c(=O)c1-c1ccc(Oc2ccc(OC(F)(F)F)cc2)cc1",
    "measuredTarget": "Plasmodium yoelii",
    "unitInfo": "mg/kg/day",
    "ED50": 0.1
  },
  {
    "compound": "COc1cc2[nH]c(C)c(-c3ccc(Oc4ccc(Cl)cc4)cc3)c(=O)c2cc1Cl",
    "measuredTarget": "Plasmodium yoelii",
    "unitInfo": "mg/kg/day",
    "ED50": 0.05
  },
  {
    "compound": "CCN(CC)CCCC(C)Nc1ccnc2cc(Cl)ccc12 (centres undefined) [CHLOROQUINE]",
    "measuredTarget": "Plasmodium yoelii",
    "unitInfo": "mg/kg/day",
    "ED50": 2.2
  }
]

Please turn your attention to the following entry.
Challenge: Consider the compound COc1cc2[nH]c(C)c(-c3ccc(Oc4ccc(OC(F)(F)F)cc4)cc3)c(=O)c2cc1F and give its recorded ED50.
Response given: 0.05

====

system: Plasmodium yoelii; test: Antimalarial activity against Plasmodium yoelii MR4 MRA-428 infected in mouse CF1 assessed as reduction on parasite burden administered through oral gavage once daily for 4 days; format: functional; conditions: MR4 MRA-428, po, 96 h
measuredParameter: ED50 (mg/kg/day)
The reply should be a number in mg/kg/day, with the unit left off.

Example results:
[
  {
    "smi": "COc1cc2[nH]c(C)c(-c3ccc(Oc4ccc(OC(F)(F)F)cc4)cc3)c(=O)c2cc1Cl",
    "measuredTarget": "Plasmodium yoelii",
    "unitInfo": "mg/kg/day",
    "observedValue": 0.02
  },
  {
    "smi": "COc1cc2[nH]c(C)c(-c3ccc(Oc4ccc(F)c(OC(F)(F)F)c4)cc3)c(=O)c2cc1Cl",
    "measuredTarget": "Plasmodium yoelii",
    "unitInfo": "mg/kg/day",
    "observedValue": 0.06
  },
  {
    "smi": "COc1cc2[nH]c(C)c(-c3ccc(Oc4ccc(OC(F)(F)F)cc4)nc3)c(=O)c2cc1Cl",
    "measuredTarget": "Plasmodium yoelii",
    "unitInfo": "mg/kg/day",
    "observedValue": 0.3
  },
  {
    "smi": "Cc1[nH]c2ccc(Cl)cc2c(=O)c1-c1ccc(Oc2ccc(OC(F)(F)F)cc2)cc1",
    "measuredTarget": "Plasmodium yoelii",
    "unitInfo": "mg/kg/day",
    "observedValue": 0.2
  }
]

Challenge: Consider the compound Cc1[nH]c2ccccc2c(=O)c1-c1ccc(Oc2ccc(OC(F)(F)F)cc2)cc1 and give its recorded ED50.
Response given: 0.1

Challenge: Consider the compound COc1cc2[nH]c(C)c(-c3ccc(Oc4ccc(C(F)(F)F)cc4)cc3)c(=O)c2cc1Cl and give its recorded ED50.
Response given: 0.03

====

test system: Liver microsome; assay: Metabolic stability in rat liver microsomes; format: ADME
measuredParameter: Stability

[
  {
    "smi": "COc1cc2[nH]c(C)c(-c3ccc(Oc4ccc(OC(F)(F)F)cc4)cc3)c(=O)c2cc1Cl",
    "observedValue": "Stable"
  },
  {
    "smi": "Cc1[nH]c2ccc(Cl)cc2c(=O)c1-c1ccc(Oc2ccc(OC(F)(F)F)cc2)cc1",
    "observedValue": "Stable"
  },
  {
    "smi": "COc1cc2[nH]c(C)c(-c3ccc(Oc4ccc(OC(F)(F)F)cc4)cc3)c(=O)c2cc1F",
    "observedValue": "Stable"
  },
  {
    "smi": "Cc1[nH]c2ccc(F)cc2c(=O)c1-c1ccc(Oc2ccc(OC(F)(F)F)cc2)cc1",
    "observedValue": "Stable"
  }
]

====

test: Inhibition of cytochrome bc1 complex isolated from trophozoite stage Plasmodium falciparum
measuredParameter: EC50 (pM)
The reply should be a number in pM, with the unit left off.

Challenge: Consider the molecule COc1cc2[nH]c(C)c(-c3ccc(Oc4ccc(OC(F)(F)F)cc4)cc3)c(=O)c2cc1Cl and give its recorded EC50.
Response given: 560

====

# NRD annotations
tested on: Plasmodium yoelii; experiment: Antimalarial activity against Plasmodium yoelii MR4 MRA-428 infected in mouse CF1 assessed as dose required to achieve cure measured as 30 days survival administered through oral gavage once daily for 4 days; assay type: functional

[
  {
    "smi": "COc1cc2[nH]c(C)c(-c3ccc(Oc4ccc(OC(F)(F)F)cc4)cn3)c(=O)c2cc1Cl",
    "measuredParameter": "NRD",
    "observedValue": ">3 mg/kg/day"
  },
  {
    "smi": "COc1cc2[nH]c(C)c(-c3ccc(Oc4ccc(F)c(OC(F)(F)F)c4)cc3)c(=O)c2cc1Cl",
    "measuredParameter": "NRD",
    "observedValue": ">3 mg/kg/day"
  },
  {
    "smi": "COc1cc2[nH]c(C)c(-c3ccc(Oc4ccc(OC(F)(F)F)cc4)cc3)c(=O)c2cc1Cl",
    "measuredParameter": "NRD",
    "observedValue": "0.3 mg/kg/day"
  },
  {
    "smi": "COc1cc2[nH]c(C)c(-c3ccc(Oc4ccc(OC(F)(F)F)cc4)nc3)c(=O)c2cc1Cl",
    "measuredParameter": "NRD",
    "observedValue": ">3 mg/kg/day"
  },
  {
    "smi": "COc1cc2[nH]c(C)c(-c3ccc(Oc4ccc(F)cc4)cc3)c(=O)c2cc1Cl",
    "measuredParameter": "NRD",
    "observedValue": ">3 mg/kg/day"
  }
]

Challenge: Answer briefly: NRD recorded on Plasmodium yoelii for COc1cc2[nH]c(C)c(-c3ccc(Oc4ccc(C(F)(F)F)cc4)cc3)c(=O)c2cc1Cl
Response given: 1 mg/kg/day

Challenge: Answer briefly: NRD recorded on Plasmodium yoelii for Cc1[nH]c2ccc(F)cc2c(=O)c1-c1ccc(Oc2ccc(OC(F)(F)F)cc2)cc1
Response given: 3 mg/kg/day

Challenge: Answer briefly: NRD recorded on Plasmodium yoelii for COc1cc2[nH]c(C)c(-c3ccc(Oc4cccc(OC(F)(F)F)c4)cc3)c(=O)c2cc1Cl
Response given: >3 mg/kg/day

====

system: Plasmodium yoelii; experiment: Antimalarial activity against Plasmodium yoelii MR4 MRA-428 infected in mouse CF1 assessed as reduction on parasite burden administered through oral gavage once daily for 4 days; type: functional; conditions: MR4 MRA-428, po, 96 h
measuredParameter: ED50

[
  {
    "smi": "COc1cc2[nH]c(C)c(-c3ccc(Oc4ccc(F)cc4)cc3)c(=O)c2cc1Cl",
    "ED50": "< 1 mg/kg/day"
  },
  {
    "smi": "COc1cc2[nH]c(C)c(-c3ccc(Oc4ccc(OC(F)(F)F)cc4)cn3)c(=O)c2cc1Cl",
    "ED50": "< 1 mg/kg/day"
  }
]

Challenge: Consider the compound COc1cc2[nH]c(C)c(-c3ccc(Oc4cccc(OC(F)(F)F)c4)cc3)c(=O)c2cc1Cl and give its recorded ED50.
Response given: > 3 mg/kg/day
